- experimentDescription: folding stability dG unfold (combined trypsin and chymotrypsin); higher = more stable
readoutName: folding stability dG unfold

>>> reportedresult("SAGGSAMKDFADAPGITDIHPYPDGTISIHFKSSPNARDKIVEALRKEGNIDIKTHPDHGMIRIKVSAGGSA [r15_554_TrROS]")
"< -1 kcal/mol"
>>> reportedresult("SAGGSAGGSAGGTKTIPFPIEEIEVEHNPDNNYYHVTIRFPDNGKPITFMFPPGDTITISAGGSAGGSAGGS [r10_819_TrROS]")
"0.868 kcal/mol"
>>> reportedresult("SAMTVVIPPNLTALTEDGRPIHPDQVVEVYEAEAFPELGRVVARVKVFDPVSGEETEERLVLFFPDGAESAG [r14_258_TrMRF]")
"1.53 kcal/mol"
>>> reportedresult("SAGGSAGGPLKVELVKAEILPGNKIIRVYRAELPTETYLAVIELHLNPDGEILSAKIKVYPLPESAGGSAGG [r6_19_TrMRF]")
"3.06 kcal/mol"
>>> reportedresult("SSLGPGELEVTELETTEEELPDGTTLKRTLSREIVPDPAGAGRVVLTETLSTVPPDGSETVTTLSVTVLASA [r9_838_JUSTAS]")
"-0.138 kcal/mol"
>>> reportedresult("SAGGSAMPVVELPIGPELYEKIKEAAEAGDPDKVITLPLKLPNGEEVTLVVEADPATPEFRARVELSAGGSA [r15_700_TrMRF]")
"0.105 kcal/mol"
>>> reportedresult("SAGGMVEITATVGSPDPSLTDEEIAERILKELGLDPEIVEVTFLERRLVPDAAGRVRVVVEMKFLVPEKSAG [r5_528_JUSTAS]")
"4.73 kcal/mol"
>>> reportedresult("SAGGSAGGSKKVVTYESVTLTVLVERTLPDPEGNPVTTTRVVEEPVRVTKVDFDTKVETYVVGSAGGSAGGS [r20_58_JUSTAS]")
"-0.623 kcal/mol"

---

- experimentDescription: folding stability dG unfold from chymotrypsin proteolysis; higher = more stable
Recorded folding stability dG unfold for the following sequences
readoutName: folding stability dG unfold (kcal/mol)

>>> reportedresult("SAGGSAGGSAGKKKIKLLIFDKKTNKLYVVEVELTKDGKIKITKIKEIYEVKPGEKLKLLSAGGSAGGSAGG [r11_750_TrROS_Hall]")
1.3
>>> reportedresult("SAGGMLTLIDPETGEPFLTTPIATFTVPVTLTGPDGKPLETRTLRITLFRAYRPDGSPALILLVSPESAGGS [r8_214_TrMRF]")
4.73
>>> reportedresult("SAGGSAGGSAGGSKKYFFKIKKIKVETKLEVNEDGSLTEEKKIEIEIELRELPSLEDLLSAGGSAGGSAGGS [r4_450_TrROS_Hall]")
4.62
>>> reportedresult("SAGGSAGGSAGGSSSSTVPLPDDTTLTVHTGSSSYTVTTTSPDGTSTTTTVSPATVAAALSAGGSAGGSAGG [r11_1068_JUSTAS]")
-0.0339
>>> reportedresult("SAGGSAGGRLEPITEEEALELARLLAEYIRRLFPGDPRPHLVVVPILVPTPEDGYRLFLAVIAESAGGSAGG [r6_844_TrMRF]")
4.1
>>> reportedresult("SAGGSAGGSADEIPIMIKIKYKNGGKKREHTITFRVEPNMPNLDEFAKELANNGRIEEVEISAGGSAGGSAG [r3_30_TrROS]")
-0.282
>>> reportedresult("SAGGSAGGSAGGGKTVVYRFPASLTPEQAVDEITAKVPPNYPVIVEYHPESGTFVAYVPSAGGSAGGSAGGS [r10_163_TrMRF]")
0.743
>>> reportedresult("SMTIRIVDEKTKEVREIKIENLTVEKEKDGRYRMTREQVLEALKKLLPEDVKIVEVEENEDGELTIVVEPSA [r9_997_TrROS_Hall]")
2.91
>>> reportedresult("SAGTITADDITEIEMQWDPGNGYVQIEIEFPNGYTVNAWMPNDKIEIEVWYPNGKKVEIEFEIKPPGASAGG [r19_121_TrROS]")
2.74
>>> reportedresult("SLDPGEPVYRIKVKIEMWNPNGKPIAEFTIPIRTLEEAKEAIKEMAREIAEKMGHPDMPIRIKDIEIEPYSA [r9_376_TrROS]")
2.21
>>> reportedresult("SAGGSAGMTITSATEVGTTTFNGGSITHYTLTTPSGKTITGEVDPATGTLTISFPETGLSITIPPKSAGGSA [r15_159_JUSTAS]")
0.729
>>> reportedresult("SAGGSAAEPVVLVFKTPESEALITVPPAFVQRVTVDPGGTVRRITVDLPDGTRTFLITDDSIFVDDSAGGSA [r15_598_TrMRF]")
0.581
>>> reportedresult("SAGGMTSTLTVTLTVSPSTSPEEAAERAAEALEAAHPDRTVVIESITVTPATGKVVATIKVVGDTGASAGGS [r8_26_JUSTAS]")
1.18
>>> reportedresult("SAGGSAGGSAMKYYVTITFTDPNNGNTTTEIKEVTTEEEVEKVVEELAPSSYASVKVSIKPKSAGGSAGGSA [r18_258_JUSTAS]")
1.16
>>> reportedresult("SAGMKVTTFTTPTRTVTVTLTPDGTVTVTVTDPSGNPTVTAPDGTPVASTTAPDGTTTFTLDPALFAAASAG [r5_457_JUSTAS]")
0.965
>>> reportedresult("SAGGNSMTILFIFPENGWIIRITIKFPDGNGKIDDIDIEREPVPNGQVKYTIRMPDGMEISVEIIPLDSAGG [r13_515_TrROS]")
5.57
